target.or.test.system: T1, DR3-8i (human)
T1 construct: also called purified monomeric DR3-8i antigen protein
T1 chain: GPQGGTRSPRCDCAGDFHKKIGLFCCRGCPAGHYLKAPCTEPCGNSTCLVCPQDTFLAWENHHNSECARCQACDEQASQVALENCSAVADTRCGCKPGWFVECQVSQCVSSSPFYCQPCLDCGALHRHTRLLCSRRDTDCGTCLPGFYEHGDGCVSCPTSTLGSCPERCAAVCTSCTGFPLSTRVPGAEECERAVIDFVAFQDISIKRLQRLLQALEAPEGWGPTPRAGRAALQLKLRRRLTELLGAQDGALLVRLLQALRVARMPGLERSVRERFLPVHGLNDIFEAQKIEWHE
method: BLI, IgG captured on protein A, DR3-8i in solution; Experiment 2
endpoint.name: Kd (pM)
API: value field is a number in pM; no unit string.

Here are 2 binders together with their reported answers.
{"columns": ["binder", "unit.tag", "Kd"],
 "data": [
  ["VHg1/VLg2 (antibody, human IgG1, V domains shown, human IgG1) VH: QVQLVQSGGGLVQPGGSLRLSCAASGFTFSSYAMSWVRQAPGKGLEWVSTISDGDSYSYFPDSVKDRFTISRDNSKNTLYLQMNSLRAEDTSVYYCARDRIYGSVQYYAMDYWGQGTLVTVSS VL: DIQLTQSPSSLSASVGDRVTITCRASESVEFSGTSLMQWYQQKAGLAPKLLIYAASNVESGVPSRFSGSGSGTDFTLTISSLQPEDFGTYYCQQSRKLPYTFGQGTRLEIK", "pM", 2.02],
  ["VHg6/VLg12 (antibody, human IgG1, V domains shown, human IgG1) VH: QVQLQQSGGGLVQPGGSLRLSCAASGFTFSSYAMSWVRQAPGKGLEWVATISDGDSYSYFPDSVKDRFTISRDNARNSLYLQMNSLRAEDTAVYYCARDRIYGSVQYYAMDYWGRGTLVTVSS VL: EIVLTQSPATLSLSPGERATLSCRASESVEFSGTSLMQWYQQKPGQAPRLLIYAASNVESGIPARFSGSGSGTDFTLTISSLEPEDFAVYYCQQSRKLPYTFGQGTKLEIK", "pM", 87.6]
]}

// below: Kd requested for another binder
Return Kd (reported value) for this binder: B9-hIgG1 (antibody, V domains shown, chimeric: mouse B9 variable regions, human IgG1; also called B9-H1; Non-humanised B9) VH: EVQLVESGGGLVKPGGSLKLSCSASGFTFSSYAMSWVRQTPEKRLEWVATISDGDSYSYFPDSVKDRFIISRDNAKNNLFLQMSHLRSEDTAMYYCTRDRIYGSVQYYAMDYWGQGTSVTVSS VL: DIVLTQSPASLAVSLGQRATISCRASESVEFSGTSLMQWYQQRPGLPPKLLIYAASNVESGVPARFSGSGSGTDFSLNIHPVEEDDIAMYFCQQSRKLPYTFGGGTKLEIN
190
